Test system: human PBMCs
Experiment: Human PBMC cytokine response assay (IFN-γ and IFN-α in cell-free medium by ELISA), with or without cPLGA
Type: cell-based
Settings: Example 59; 0.8 ug/ml; donor 48
Strand notation (5' to 3'): a small letter for the sugar, then the base; units joined by * are phosphorothioate-linked, units joined directly phosphodiester-linked; [ ] holds rarer units or linkages, { } end groups; capitals alone tell only the bases. d = 2'-deoxy (DNA)
endpoint_label: IFN-α (pg/mL)
Numbers only, in pg/mL.

5′-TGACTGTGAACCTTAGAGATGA-3′ (SEQ ID NO: 3) (dT*dG*dA*dC*dT*dG*dT*dG*dA*dA*dC*dC*dT*dT*dA*dG*dA*dG*dA*dT*dG*dA) [Compound P-7, negative control, reference compound] = 102
(5′-TAGTCAT-3′-HEG)2-glycerol-HEG-5′-AACCTTC-3′ [Compound M-3, reference compound] = 102

For every record below, what is its IFN-α?
1. (5′-TCGACGT-HEG)2-glycerol-HEG-5′-CCTACTGAACCTCTAAGT-3′ (SEQ ID NO: 158) (DNA, all phosphorothioate, methylation of C not given here; Two heptamer DNA arms joined by HEG spacers and glycerol branching to the chain) [Compound C-203]
2. (5′-TCGACGT-HEG)2-glycerol-HEG-5′-ACTTAGAGGTTCAGTAGG-3′ (SEQ ID NO: 157) (DNA, all phosphorothioate, methylation of C not given here; Two heptamer DNA arms joined by HEG spacers and glycerol branching to the chain) [Compound C-202]
3. (5′-TCGACGT-HEG)2-glycerol-HEG-5′-TTGGCCAAGCTTGGCCAA (SEQ ID NO: 116) (DNA, all phosphorothioate, methylation of C not given here; Two heptamer DNA arms joined by HEG spacers and glycerol branching to the chain) [Compound C-178]
4. (5′-TCGACGT-3′-HEG)2-glycerol-HEG-5′-TCGACGT-3′ [Compound C-101]

// result
102
830
336
102
